# method: Pharmacokinetics of gefitinib after repeated oral Lonicera flos
# Type: in vivo, Sprague-Dawley rats
# test settings: male, Sprague-Dawley, rat, plasma, po, 10 mg/kg, gefitinib 10 mg/kg oral, Lonicera japonica group (15 days pre-treatment), average
experimental readout: Cmax

If you can, please state the reported Cmax value of COc1cc2ncnc(Nc3ccc(F)c(Cl)c3)c2cc1OCCCN1CCOCC1 [Gefitinib, gefitinib] .
736 ng/mL

###

# method: Pharmacokinetics of gefitinib after repeated oral Lonicera flos
# Assay type: in vivo, Sprague-Dawley rats
# test settings: male, Sprague-Dawley, rat, plasma, po, 10 mg/kg, gefitinib 10 mg/kg oral, Lonicera japonica group (15 days pre-treatment), average
experimental readout: AUC(0-t)
Hi, when you answer, please include the unit after the number. Thanks!

Can you look up the measured AUC(0-t) of COc1cc2ncnc(Nc3ccc(F)c(Cl)c3)c2cc1OCCCN1CCOCC1 for me?
8740 ng·h/mL

###

# method: Pharmacokinetics of gefitinib after repeated oral Lonicera flos
# Format: in vivo, Sprague-Dawley rats
# test settings: male, Sprague-Dawley, rat, plasma, oral, gefitinib 10 mg/kg oral after Lonicera flos 300 mg/kg oral 15 days, 24 h
experimental readout: concentration at 24 h (ng/mL)
Note: unit ng/mL is implicit; provide only the numeric part.

Could you tell me which concentration at 24 h is on file for COc1cc2ncnc(Nc3ccc(F)c(Cl)c3)c2cc1OCCCN1CCOCC1 ?
53

###

# method: Pharmacokinetics of gefitinib after repeated oral Lonicera flos
# Format: in vivo, Sprague-Dawley rats
# test settings: male, Sprague-Dawley, rat, plasma, po, 10 mg/kg, gefitinib 10 mg/kg oral, Control, average
experimental readout: AUC(0-t) (ng·h/mL)
The reply should be a number in ng·h/mL, with the unit left off.

Could you share which AUC(0-t) value was measured for COc1cc2ncnc(Nc3ccc(F)c(Cl)c3)c2cc1OCCCN1CCOCC1 ?
10800

###

# method: Pharmacokinetics of gefitinib after repeated oral Lonicera flos
# Assay type: in vivo, Sprague-Dawley rats
# test settings: male, Sprague-Dawley, rat, plasma, po, 10 mg/kg, gefitinib 10 mg/kg oral, Lonicera japonica group (15 days pre-treatment), average
experimental readout: half-life (h)
Give the value in h but do not write h after it.

Value lookup for half-life; key = COc1cc2ncnc(Nc3ccc(F)c(Cl)c3)c2cc1OCCCN1CCOCC1
4.84

###

# method: Pharmacokinetics of gefitinib after repeated oral Lonicera flos
# Format: in vivo, Sprague-Dawley rats
# test settings: male, Sprague-Dawley, rat, plasma, oral, 10 mg/kg, gefitinib 10 mg/kg oral, control (saline) rats, 1 h
experimental readout: concentration at 1 h (ng/mL)
The reply should be a number in ng/mL, with the unit left off.

What measured concentration at 1 h goes with COc1cc2ncnc(Nc3ccc(F)c(Cl)c3)c2cc1OCCCN1CCOCC1 [Gefitinib, gefitinib] ?
805

###

# method: Pharmacokinetics of gefitinib after repeated oral Lonicera flos
# Type: in vivo, Sprague-Dawley rats
# test settings: male, Sprague-Dawley, rat, plasma, oral, gefitinib 10 mg/kg oral after Lonicera flos 300 mg/kg oral 15 days, 7 h
experimental readout: concentration at 7 h (ng/mL)
Numbers only; they are read as ng/mL.

Endpoint output: concentration at 7 h of COc1cc2ncnc(Nc3ccc(F)c(Cl)c3)c2cc1OCCCN1CCOCC1 . Value?
579

###

# method: Pharmacokinetics of gefitinib after repeated oral Lonicera flos
# Format: in vivo, Sprague-Dawley rats
# test settings: male, Sprague-Dawley, rat, plasma, oral, gefitinib 10 mg/kg oral after Lonicera flos 300 mg/kg oral 15 days, […]
experimental readout: concentration at […] (ng/mL)
Report the value in ng/mL with no unit label.

Please look up its concentration at […]: COc1cc2ncnc(Nc3ccc(F)c(Cl)c3)c2cc1OCCCN1CCOCC1
274
